FYI, the data here is from patent US20060166985A1.

Listed molecules paired with reported Ki
# ASSAY_SYSTEM: human Thrombin (Homo sapiens, UniProt P00734)
# TEST_NAME: In vitro assay for inhibition of Thrombin (chromogenic or fluorogenic assay)
# Format: biochemical
# CONDITION_DETAILS: Example 2 chromogenic assay, other Examples fluorogenic assay, read-out: thrombin inhibitory Ki

[
  {
    "SMILES_RECORD": "Cn1ncnc1C[C@@H](C(=O)N1CCOCC1)N1CC[C@H](NS(=O)(=O)CCc2ccc(Cl)s2)C1=O",
    "Ki": "< 100 nM"
  },
  {
    "SMILES_RECORD": "C[C@@H](C(=O)N1CCOCC1)N1CC[C@H](NS(=O)(=O)CCc2ccc(Cl)cc2Cl)C1=O",
    "Ki": "< 200 nM"
  },
  {
    "SMILES_RECORD": "COC[C@@H](C(=O)N1CCOCC1)N1CC[C@H](NS(=O)(=O)/C=C(\\C)c2ccc(Cl)s2)C1=O",
    "Ki": "< 10 nM"
  },
  {
    "SMILES_RECORD": "CCOC[C@@H](C(=O)N1CCOCC1)N1CC[C@H](NS(=O)(=O)CCc2ccc(Cl)cn2)C1=O",
    "Ki": "< 25 nM"
  }
]

---

# ASSAY_SYSTEM: human Thrombin (Homo sapiens)
# TEST_NAME: In vitro assay for inhibition of Thrombin (chromogenic or fluorogenic assay)
# Assay type: biochemical
# CONDITION_DETAILS: Example 2 chromogenic assay, other Examples fluorogenic assay, read-out: thrombin inhibitory Ki
RESULT_TYPE: Ki

[
  {
    "SMILES_RECORD": "Cc1noc(C[C@@H](C(=O)N2CCOCC2)N2CC[C@H](N(C)S(=O)(=O)CCc3ccc(Cl)s3)C2=O)n1",
    "RECORDED_RESULT": "< 50 nM"
  },
  {
    "SMILES_RECORD": "O=C([C@H](CCN1CCCCC1)N1CC[C@H](NS(=O)(=O)CCc2ccc(Cl)s2)C1=O)N1CCOCC1",
    "RECORDED_RESULT": "< 100 nM"
  },
  {
    "SMILES_RECORD": "O=C([C@H](c1ccccc1)N1CC[C@H](NS(=O)(=O)CCc2ccc(Cl)s2)C1=O)N1CCOCC1",
    "RECORDED_RESULT": "< 100 nM"
  },
  {
    "SMILES_RECORD": "CC(C)OC[C@@H](C(=O)N1CCOCC1)N1CC[C@H](NS(=O)(=O)CCc2ccc(Cl)s2)C1=O",
    "RECORDED_RESULT": "< 10 nM"
  }
]

---

Target or system human Thrombin (Homo sapiens, UniProt P00734); recorded quantity Ki.
RESULT_TYPE: Ki

[
  {
    "COMPOUND": "COC[C@@H](C(=O)N1CCOCC1)N1CC[C@H](NS(=O)(=O)CC(C)c2ccc(Cl)s2)C1=O (some centres unmarked) [Example 58]",
    "RESULT_TYPE": "Ki",
    "RECORDED_RESULT": "< 100 nM"
  },
  {
    "COMPOUND": "C/C(=C\\S(=O)(=O)N[C@H]1CCN([C@@H](Cc2ccccc2)C(=O)N2CCOCC2)C1=O)c1ccc(Cl)s1 [Example 14]",
    "RESULT_TYPE": "Ki",
    "RECORDED_RESULT": "< 10 nM"
  },
  {
    "COMPOUND": "C[C@@H](C(=O)N1CCOCC1)N1CC[C@H](NS(=O)(=O)CC2COc3cc(Cl)ccc32)C1=O (some centres unmarked) [Example 64]",
    "RESULT_TYPE": "Ki",
    "RECORDED_RESULT": "< 100 nM"
  },
  {
    "COMPOUND": "CC(C)[C@@H](C(=O)N1CCOCC1)N1CC[C@H](NS(=O)(=O)CCc2ccc(Cl)cc2)C1=O [Example 45]",
    "RESULT_TYPE": "Ki",
    "RECORDED_RESULT": "< 50 nM"
  },
  {
    "COMPOUND": "C[C@@H](C(=O)N1CCOCC1)N1CC[C@H](NS(=O)(=O)CCc2ccc(Cl)cc2F)C1=O [Example 25]",
    "RESULT_TYPE": "Ki",
    "RECORDED_RESULT": "< 200 nM"
  },
  {
    "COMPOUND": "C/C(=C\\S(=O)(=O)N[C@H]1CCN([C@@H](CCN2CCOCC2)C(=O)N2CCOCC2)C1=O)c1ccc(Cl)s1 [Example 96]",
    "RESULT_TYPE": "Ki",
    "RECORDED_RESULT": "< 50 nM"
  },
  {
    "COMPOUND": "COC[C@@H](C(=O)N1CCOCC1)N1CC[C@H](NS(=O)(=O)CCc2ccc(Cl)cc2)C1=O [Example 89]",
    "RESULT_TYPE": "Ki",
    "RECORDED_RESULT": "< 50 nM"
  },
  {
    "COMPOUND": "CO[C@H](C)[C@@H](C(=O)N1CCOCC1)N1CC[C@H](NS(=O)(=O)/C=C(\\C)c2ccc(Cl)s2)C1=O [Example 18]",
    "RESULT_TYPE": "Ki",
    "RECORDED_RESULT": "< 10 nM"
  },
  {
    "COMPOUND": "O=C([C@H](c1cccs1)N1CC[C@H](NS(=O)(=O)CCc2ccc(Cl)cc2)C1=O)N1CCOCC1 [Example 74]",
    "RESULT_TYPE": "Ki",
    "RECORDED_RESULT": "< 100 nM"
  },
  {
    "COMPOUND": "C[C@@H](C(=O)N1CCOCC1)N1CC[C@H](NS(=O)(=O)CC(F)(F)c2ccc(Cl)cc2)C1=O [Example 27]",
    "RESULT_TYPE": "Ki",
    "RECORDED_RESULT": "< 25 nM"
  },
  {
    "COMPOUND": "C[C@@H](C(=O)N1CCOCC1)N1CC[C@H](N(C)S(=O)(=O)CCc2ccc(Cl)s2)C1=O [Example 19]",
    "RESULT_TYPE": "Ki",
    "RECORDED_RESULT": "< 50 nM"
  },
  {
    "COMPOUND": "CC(CS(=O)(=O)N[C@H]1CCN([C@@H](C)C(=O)N2CCOCC2)C1=O)c1ccc(Cl)s1 (some centres unmarked) [Example 54]",
    "RESULT_TYPE": "Ki",
    "RECORDED_RESULT": "< 100 nM"
  },
  {
    "COMPOUND": "CS(=O)(=O)CC[C@@H](C(=O)N1CCOCC1)N1CC[C@H](NS(=O)(=O)CCc2ccc(Cl)cc2)C1=O [Example 99]",
    "RESULT_TYPE": "Ki",
    "RECORDED_RESULT": "< 200 nM"
  },
  {
    "COMPOUND": "CN(C)C(=O)C[C@@H](C(=O)N1CCOCC1)N1CC[C@H](NS(=O)(=O)CCc2ccc(Cl)s2)C1=O [Example 32]",
    "RESULT_TYPE": "Ki",
    "RECORDED_RESULT": "< 50 nM"
  },
  {
    "COMPOUND": "O=C(C[C@@H](C(=O)N1CCOCC1)N1CC[C@H](NS(=O)(=O)CCc2ccc(Cl)s2)C1=O)OCc1ccccc1 [Example 21]",
    "RESULT_TYPE": "Ki",
    "RECORDED_RESULT": "< 10 nM"
  },
  {
    "COMPOUND": "C[C@@H](C(=O)N1CCOCC1)N1CC[C@H](NS(=O)(=O)CC2OCc3cc(Cl)ccc32)C1=O (some centres unmarked) [Example 66]",
    "RESULT_TYPE": "Ki",
    "RECORDED_RESULT": "< 50 nM"
  },
  {
    "COMPOUND": "CCOC(=O)CN([C@H]1CCN([C@@H](C)C(=O)N2CCOCC2)C1=O)S(=O)(=O)CCc1ccc(Cl)s1 [Example 34]",
    "RESULT_TYPE": "Ki",
    "RECORDED_RESULT": "< 25 nM"
  },
  {
    "COMPOUND": "CC[C@@H](C(=O)N1CCOCC1)N1CC[C@H](NS(=O)(=O)CCc2ccc(Cl)cc2)C1=O [Example 6]",
    "RESULT_TYPE": "Ki",
    "RECORDED_RESULT": "< 100 nM"
  },
  {
    "COMPOUND": "O=C(C[C@@H](C(=O)N1CCOCC1)N1CC[C@H](NS(=O)(=O)CCc2ccc(Cl)s2)C1=O)N1CCOCC1 [Example 31]",
    "RESULT_TYPE": "Ki",
    "RECORDED_RESULT": "< 200 nM"
  },
  {
    "COMPOUND": "CC[C@H](C)[C@@H](C(=O)N1CCOCC1)N1CC[C@H](NS(=O)(=O)CCc2ccc(Cl)s2)C1=O [Example 10]",
    "RESULT_TYPE": "Ki",
    "RECORDED_RESULT": "< 10 nM"
  }
]
